targetOrTestSystem: KRAS G12D (Homo sapiens, UniProt P01116+P62937, G12D)
Sequence (P01116 1-169 isoform P01116-2 G12D limits assumed): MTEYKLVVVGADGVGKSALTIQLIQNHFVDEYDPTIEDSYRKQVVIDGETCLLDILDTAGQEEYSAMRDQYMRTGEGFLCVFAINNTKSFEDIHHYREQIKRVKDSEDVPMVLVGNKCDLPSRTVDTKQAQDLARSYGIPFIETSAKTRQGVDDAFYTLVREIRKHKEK
Sequence (P62937 whole entry): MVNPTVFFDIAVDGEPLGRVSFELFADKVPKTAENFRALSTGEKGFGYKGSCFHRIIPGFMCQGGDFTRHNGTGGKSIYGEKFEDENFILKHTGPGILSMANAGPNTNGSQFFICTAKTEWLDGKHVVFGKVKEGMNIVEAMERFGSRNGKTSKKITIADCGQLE
methodDescription: Ras-Raf disruption / FRET / MOA assay (BRAF RBD)
Assay type: biochemical
details: Ras-Raf disruption, with Cyclophilin A; read-out: KRAS G12D FRET data IC50
Reported IC50 values follow for various compounds

-- ask Fill in the blank: the reported IC50 of CCn1c(-c2cccnc2[C@H](C)OC)c2c3cc(ccc31)-c1cc(O)cc(c1)C[C@H](NC(=O)[C@H](C(C)C)N(C)C(=O)c1ccc([C@H]3CN3)cc1)C(=O)N1CCC[C@H](N1)C(=O)OCC(C)(C)C2 [Example 145] is ____.
-- reply 1000 to 10000 nM

-- ask Fill in the blank: the reported IC50 of CCn1c(-c2cccnc2[C@H](C)OC)c2c3cc(ccc31)-c1cccc(c1)C[C@H](NC(=O)[C@H](C(C)C)N(C)C(=O)[C@H]1CC[C@H](N=C=NC(C)C)C1)C(=O)N1CCC[C@H](N1)C(=O)OCC(C)(C)C2 [Example 124] is ____.
-- reply 1000 to 10000 nM

-- ask Fill in the blank: the reported IC50 of CCn1c(-c2cccnc2[C@H](C)OC)c2c3cc(ccc31)-c1csc(n1)C[C@H](NC(=O)[C@H](C(C)C)N(C)C(=O)N(C)CC1CN(C(=O)[C@H]3CN3)C1)C(=O)N1CCC[C@H](N1)C(=O)OCC(C)(C)C2 (atropisomer, axis not shown) [Example 293] is ____.
-- reply 100 to 1000 nM

-- ask Fill in the blank: the reported IC50 of CCn1c(-c2cccnc2[C@H](C)OC)c2c3cc(ccc31)-c1cc(O)cc(c1)C[C@H](NC(=O)[C@H](C(C)C)N(C)C(=O)C1CCN(C(=O)[C@H]3CN3)CC1)C(=O)N1CCC[C@H](N1)C(=O)OCC(C)(C)C2 [Example 86] is ____.
-- reply 100 to 1000 nM

-- ask Fill in the blank: the reported IC50 of CCn1c(-c2cccnc2[C@H](C)OC)c2c3cc(ccc31)-c1cc(O)cc(c1)C[C@H](NC(=O)[C@H](C(C)C)N(C)C(=O)C1CN(S(=O)(=O)[C@@H]3CN3C)C1)C(=O)N1CCC[C@H](N1)C(=O)OCC(C)(C)C2 (single isomer, unassigned) [Example 118] is ____.
-- reply 1000 to 10000 nM

-- ask Fill in the blank: the reported IC50 of CCn1c(-c2cccnc2[C@H](C)OC)c2c3cc(ccc31)-c1cc(O)cc(c1)C[C@H](NC(=O)[C@H](C(C)C)N1CC[C@@]3(CCN(C[C@@H]4CN4)C3)C1=O)C(=O)N1CCC[C@H](N1)C(=O)OCC(C)(C)C2 [Example 138] is ____.
-- reply 100 to 1000 nM

-- ask Fill in the blank: the reported IC50 of CCn1c(-c2cccnc2[C@H](C)OC)c2c3cc(ccc31)-c1cc(O)cc(c1)C[C@H](NC(=O)[C@H](C(C)C)N(C)C(=O)[C@H]1C[C@@H]3N[C@@H]3C1)C(=O)N1CCC[C@H](N1)C(=O)OCC(C)(C)C2 (atropisomer, axis not shown) [Example 286] is ____.
-- reply 100 to 1000 nM

-- ask Fill in the blank: the reported IC50 of CCn1c(-c2cccnc2[C@H](C)OC)c2c3cc(ccc31)-c1cc(O)cc(c1)C[C@H](NC(=O)[C@H](C(C)C)N(C)C(=O)[C@H]1C[C@H](NC(=O)[C@H]3CN3)C1)C(=O)N1CCC[C@H](N1)C(=O)OCC(C)(C)C2 [Example 182] is ____.
-- reply 100 to 1000 nM

-- ask Fill in the blank: the reported IC50 of CCn1c(-c2cccnc2[C@H](C)OC)c2c3cc(ccc31)-c1cc(O)cc(c1)C[C@H](NC(=O)[C@H](C1CCCC1)N(C)C(=O)[C@H]1CCN(C[C@H]3CN3)C1=O)C(=O)N1CCC[C@H](N1)C(=O)OCC(C)(C)C2 [Example 58] is ____.
-- reply 100 to 1000 nM

-- ask Fill in the blank: the reported IC50 of CCn1c(-c2cccnc2[C@H](C)OC)c2c3cc(ccc31)-c1cccc(c1)C[C@H](NC(=O)[C@H](C(C)C)N(C)C(=O)[C@H]1CC[C@H](N=C=NC34CC(C3)C4)C1)C(=O)N1CCC[C@H](N1)C(=O)OCC(C)(C)C2 [Example 123] is ____.
-- reply 1000 to 10000 nM

-- ask Fill in the blank: the reported IC50 of CCn1c(-c2cccnc2[C@H](C)OC)c2c3cc(ccc31)-c1cc(O)cc(c1)C[C@H](NC(=O)[C@H](C(C)C)N(C)C(=O)N1C[C@@H]3[C@H]1CCN3C(=O)[C@H]1CN1)C(=O)N1CCC[C@H](N1)C(=O)OCC(C)(C)C2 (atropisomer, axis not shown) [Example 250] is ____.
-- reply 1000 to 10000 nM

-- ask Fill in the blank: the reported IC50 of CCn1c(-c2cccnc2[C@H](C)OC)c2c3cc(ccc31)-c1cccc(c1)C[C@H](NC(=O)[C@H](C(C)C)N(C)C(=O)[C@H]1CCN(C(=O)[C@H]3CN3)C1)C(=O)N1CCC[C@H](N1)C(=O)OCC(C)(C)C2 [Example 106] is ____.
-- reply 1000 to 10000 nM
